biological target: Tyrosine-protein kinase ABL1 (Homo sapiens) (UniProt P00519); experiment: Binding affinity to human wild type ABL1 (229 to 512 residues) expressed in mammalian expression system assessed as fraction of unbound kinase to substrate at 10 uM after 1 hr by KinomeScan assay
Sequence (P00519 whole entry, the tested form may be a part): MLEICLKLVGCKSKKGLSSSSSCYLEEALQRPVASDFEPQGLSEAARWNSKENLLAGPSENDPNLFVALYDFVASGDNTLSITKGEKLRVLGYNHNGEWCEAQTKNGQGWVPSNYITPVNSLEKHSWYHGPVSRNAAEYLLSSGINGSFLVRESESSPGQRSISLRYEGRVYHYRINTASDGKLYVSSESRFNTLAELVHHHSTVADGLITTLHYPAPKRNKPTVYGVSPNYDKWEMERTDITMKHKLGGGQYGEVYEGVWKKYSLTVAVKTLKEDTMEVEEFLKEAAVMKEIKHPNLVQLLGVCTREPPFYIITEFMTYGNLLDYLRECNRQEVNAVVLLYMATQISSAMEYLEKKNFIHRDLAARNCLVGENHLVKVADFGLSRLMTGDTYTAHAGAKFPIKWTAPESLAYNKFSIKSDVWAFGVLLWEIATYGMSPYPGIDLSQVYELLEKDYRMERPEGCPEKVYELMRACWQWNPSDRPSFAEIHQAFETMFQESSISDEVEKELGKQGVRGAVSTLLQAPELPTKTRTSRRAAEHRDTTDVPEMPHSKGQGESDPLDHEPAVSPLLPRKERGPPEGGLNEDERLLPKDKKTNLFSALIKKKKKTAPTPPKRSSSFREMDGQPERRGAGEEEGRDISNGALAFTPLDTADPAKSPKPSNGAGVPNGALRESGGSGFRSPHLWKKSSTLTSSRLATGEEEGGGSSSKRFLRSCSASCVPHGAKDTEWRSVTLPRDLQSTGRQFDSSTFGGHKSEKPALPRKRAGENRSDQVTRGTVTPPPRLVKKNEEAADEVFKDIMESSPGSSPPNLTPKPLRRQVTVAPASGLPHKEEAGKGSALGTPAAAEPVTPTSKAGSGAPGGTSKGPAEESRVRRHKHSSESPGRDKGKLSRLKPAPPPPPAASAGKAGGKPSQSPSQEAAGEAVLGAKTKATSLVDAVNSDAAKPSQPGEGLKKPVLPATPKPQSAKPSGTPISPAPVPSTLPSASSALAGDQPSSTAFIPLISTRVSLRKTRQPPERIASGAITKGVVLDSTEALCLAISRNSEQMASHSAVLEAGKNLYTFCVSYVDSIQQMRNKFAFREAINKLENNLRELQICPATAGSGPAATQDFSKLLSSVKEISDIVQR
Measure name: Activity (%)
Number only, in %; omit the unit.

Some solved cases for reference:
{"Substance smiles": "Cc1cnc2[nH]cnc2c1Oc1ccc(NC(=O)c2cccn(-c3ccc(F)cc3)c2=O)cc1F", "Activity (%)": 3}
{"Substance smiles": "O=C(Nc1ccc(Oc2ccnc3[nH]cnc23)c(F)c1)c1cccn(-c2ccc(F)cc2)c1=O", "Activity (%)": 34}
{"Substance smiles": "CC(C)c1nc2c(Oc3ccc(NC(=O)c4cccn(-c5ccc(F)cc5)c4=O)cc3F)ccnc2[nH]1", "Activity (%)": 17}

Continue with the next compound.
### Prompt Please provide the recorded Activity for `O=C(Nc1ccc(Oc2c(Br)cnc3[nH]cnc23)c(F)c1)c1cccn(-c2ccc(F)cc2)c1=O` , tested on Tyrosine-protein kinase ABL1 (Homo sapiens) (UniProt P00519).
### Response 0
